Assay: A CellTox Green Cytotoxicity Assay to monitor cytotoxicity in HEK293 cells - 40 hour (AID 1224871); note: nearly all actives have a fitted effect of over 45% in size
Conditions: CellTox Green fluorescence; series mostly up to 76.8 µM
Inconclusive results are not listed. The source made the active and inactive calls. Calls come from the whole dose curve; as a rule, active = well fitted activation curve with a large enough effect in the repeat runs; inconclusive = weak or mixed curves; inactive = flat fitted curve, though single readings scatter.
I would appreciate it if you answered using one of these outcomes: active, inactive

### Prompt What did the test return for O=C1C(Cl)C(CCl)CN1c1cccc(C(F)(F)F)c1 (stereo unspecified) ?
### Response inactive

### Prompt Test call for this compound, please: `ClCc1ccccc1`
### Response inactive

### Prompt For this compound, state the assay outcome: CC/C(=N\OC/C=C/Cl)C1=C(O)CC(C2CCOCC2)CC1=O (stereo unspecified)
### Response inactive

### Prompt Call for entry CCCCC(O)(Cn1cncn1)c1ccc(Cl)cc1Cl (stereo unspecified) :
### Response active

### Prompt Dear all, I need the recorded test outcome for `CCOP(=S)(OCC)SCSCC` , thank you.
### Response inactive

### Prompt Name the outcome recorded for `O=C(NCc1cccnc1)Nc1ccc([N+](=O)[O-])cc1` in the assay.
### Response inactive
